Target: BACE1 (Homo sapiens, UniProt P56817)
Sequence (P56817 46-501): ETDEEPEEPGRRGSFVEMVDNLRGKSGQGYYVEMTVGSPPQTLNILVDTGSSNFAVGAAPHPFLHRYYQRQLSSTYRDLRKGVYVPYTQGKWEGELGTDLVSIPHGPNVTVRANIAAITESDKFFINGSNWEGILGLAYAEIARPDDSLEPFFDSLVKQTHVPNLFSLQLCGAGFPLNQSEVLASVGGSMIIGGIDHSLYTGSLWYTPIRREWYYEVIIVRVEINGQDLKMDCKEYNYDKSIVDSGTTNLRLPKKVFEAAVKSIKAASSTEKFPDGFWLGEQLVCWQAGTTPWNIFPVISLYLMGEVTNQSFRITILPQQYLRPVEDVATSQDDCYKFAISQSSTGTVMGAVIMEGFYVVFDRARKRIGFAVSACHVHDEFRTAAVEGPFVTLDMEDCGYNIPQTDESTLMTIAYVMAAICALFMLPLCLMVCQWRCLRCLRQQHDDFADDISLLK
Assay: In vitro enzymatic BACE FRET assay
Assay type: biochemical
Description: In Vitro Enzymatic BACE FRET (fluorescence resonance energy transfer) Assay (Enzyme Assay data in the Example Table I) The assay buffer used in this screen is 0.05 M acetate, pH 4.2, 10% DMSO final, 100 uM genapol (which is a nonionic detergent, below its Critical Micelle Concentration). […] The FRET assay is terminated with by addition of Tris buffer, which raises the pH to neutrality, and the fluorescence is determined. […]
Parameter: IC50. Scope: all listed entries.

NC1=N[C@@]2(c3cc(Br)ccc3Oc3c2cc(Cl)nc3F)c2cnccc21 (single isomer, unassigned) [Example 14c-1] | > 10 µM

Given the compound NC1=N[C@@]2(c3cc(-c4cccnc4F)ccc3Oc3cnc(-c4cccnc4F)cc32)c2ccccc21 (single isomer, unassigned) , write its reported IC50.
> 10 µM

Given the compound NC1=N[C@@]2(c3cc(Br)ccc3Oc3c2cc(Cl)nc3F)c2cccnc21 (single isomer, unassigned) [Example 17c-1] , write its reported IC50.
> 10 µM
